The entries below pair compounds with Ki values for D(3) dopamine receptor (Homo sapiens), as found in several publications.
The response must be a number in nM with no trailing unit.

Worked set:
smiles_entry=CCC(=O)N[C@H]1CC[C@H](CCN2CCN(c3noc4ccncc34)CC2)CC1 reported_measurement=12.4
smiles_entry=Cn1c(SCCCN2CCc3ccc(C(=O)c4cccc(F)c4)cc3C2)nnc1-c1cnccn1 reported_measurement=25.5
smiles_entry=Cn1c(SCCCN2CCN(c3cc(C4CCC4)nc(C(C)(C)C)n3)CC2)nnc1C(F)(F)F reported_measurement=2
smiles_entry=CC(C)(C)c1nc(N2CCN(CCCCNC(=O)N3CCC(n4c(=O)[nH]c5ccccc54)CC3)CC2)cc(C(F)(F)F)n1 reported_measurement=35.2
smiles_entry=CCCN[C@H]1CCc2cc(NS(=O)(=O)c3ccc(C(C)=O)cc3)ccc2C1 reported_measurement=9.4

The compound CCCN1CC[C@@H](c2ccc(NS(=O)(=O)c3cc4ccccc4o3)cc2)C1 , when measured on D(3) dopamine receptor (Homo sapiens), yielded Ki of 13.5

The compound C=C(C)c1ccc(S(=O)(=O)Nc2ccc([C@@H]3CCN(CCC)C3)cc2)c(F)c1 , when measured on D(3) dopamine receptor (Homo sapiens), yielded Ki of 0.48

* * *

The entries below pair compounds with pKi values for UniProt:P35462, as found in several publications.
# log scale: pKi equals minus log10 of the concentration in mol/L

compound="CC(CCCn1ccc(=O)[nH]c1=O)N1CCN(c2cc(C(F)(F)F)nc(C(C)(C)C)n2)CC1 (stereo not shown)" target_entity=UniProt:P35462 test_readout=pKi reported_measurement=7.96
compound=CCCN1CC[C@@H](c2ccc(NS(=O)(=O)c3ccc(Br)c(F)c3)cc2)C1 target_entity=UniProt:P35462 test_readout=pKi reported_measurement=8.72

The compound Cc1nc(N2CCN(CCCCNC(=O)N3CCc4[nH]c5ccc(Cl)cc5c4C3)CC2)cc(C(C)(C)C)n1 , when measured on UniProt:P35462, yielded pKi of 6.67

The compound CC(C)(C)c1nc(N2CCN(CCCCNC(=O)N3CCC(O)(c4ccc(Cl)cc4)CC3)CC2)cc(C(F)(F)F)n1 , when measured on UniProt:P35462, yielded pKi of 7.29

The compound CC(C)(C)c1nc(N2CCN(CCCCNC(=O)N3CCN(c4ncccn4)CC3)CC2)cc(C(F)(F)F)n1 , when measured on UniProt:P35462, yielded pKi of 7.86

The compound CC(=O)N[C@H]1CC[C@H](CCN2CCN(c3ncc(C(F)(F)F)cc3Cl)CC2)CC1 , when measured on UniProt:P35462, yielded pKi of 8.02

* * *

The entries below pair molecules with pKi values for D(3) dopamine receptor (Homo sapiens, UniProt P35462), as found in several publications.
# log scale: pKi equals minus log10 of the concentration in mol/L

molecule="CCCN1CC[C@@H](c2ccc(NS(=O)(=O)c3ccc(C(C)C(F)F)cc3)cc2)C1 (some centres unmarked)" test_readout=pKi reported_measurement=8.88
molecule=CCCN[C@H]1CCc2cc(NS(=O)(=O)c3ccc(CCCF)cc3)ccc2C1 test_readout=pKi reported_measurement=8.77
molecule="CCCN1CCC2c3ccc(NS(=O)(=O)c4ccc(C(C)C)cc4)cc3NC2C1 (centres unmarked)" test_readout=pKi reported_measurement=8.28
molecule=Cn1c(SCCCN2CCc3ccc(C(=O)c4ccccc4)cc3C2)nnc1-c1ccncc1 test_readout=pKi reported_measurement=7.94

Here is another molecule to look at.
The reported pKi of the molecule CCCN1C[C@@H]2C[C@@H](c3ccc(NS(=O)(=O)c4ccc(N5CCC[C@@H]5COC)cc4)cc3)[C@@H]2C1 was 8.39
